- Tested on: U2OS
- assay_summary: cell viability relative to DMSO; higher = less toxic
- measurement_context: 72 h; 1000 nM
outcome_measure: cell viability (%)
Just the number in %, nothing appended.

In the examples that follow, each entry is paired with its recorded cell viability.
> print(dat)
                               entry.smiles  target.or.system  value
1  CCN(c1cc(-c2ccc(CN3CCOCC3)cc2)cc(C(=O)NCc2c(C)cc(C)[nH]c2=O)c1C)C1CCOCC1              U2OS    102
2  O=C(NN1C(=O)[C@@H]2[C@@H]3C=C[C@@H]([C@H]4C[C@@H]34)[C@@H]2C1=O)c1ccc(C(F)(F)F)cc1              U2OS   99.6
3               N#C/C(=C\c1ccc(O)cc1)C(=O)O              U2OS   98.6
4             COc1ccc(C(=O)c2ccccc2O)c(O)c1              U2OS    105

As a next step, examine the molecule that follows.
Ask: # input molecule: Cc1ccc2c(N3CCN(CCc4cccc(N5CCNC5=O)c4)CC3)cccc2n1 ; wanted: its cell viability
Reply: 95.5

Values were extracted from the supplement of paper PMC13380429.
